meta.source: patent US20250257130A1

target: T1, human ROR1 on cells (HEK293T-hROR1, PANC-1, A549) (human, UniProt Q01973 30-937); experiment: flow cytometry, HEK293T-hROR1 cells
T1 construct: whole, on cells; one molecule for the three cell lines; also called huROR1; cell surface ROR1
T1 sequence (Q01973 30-937): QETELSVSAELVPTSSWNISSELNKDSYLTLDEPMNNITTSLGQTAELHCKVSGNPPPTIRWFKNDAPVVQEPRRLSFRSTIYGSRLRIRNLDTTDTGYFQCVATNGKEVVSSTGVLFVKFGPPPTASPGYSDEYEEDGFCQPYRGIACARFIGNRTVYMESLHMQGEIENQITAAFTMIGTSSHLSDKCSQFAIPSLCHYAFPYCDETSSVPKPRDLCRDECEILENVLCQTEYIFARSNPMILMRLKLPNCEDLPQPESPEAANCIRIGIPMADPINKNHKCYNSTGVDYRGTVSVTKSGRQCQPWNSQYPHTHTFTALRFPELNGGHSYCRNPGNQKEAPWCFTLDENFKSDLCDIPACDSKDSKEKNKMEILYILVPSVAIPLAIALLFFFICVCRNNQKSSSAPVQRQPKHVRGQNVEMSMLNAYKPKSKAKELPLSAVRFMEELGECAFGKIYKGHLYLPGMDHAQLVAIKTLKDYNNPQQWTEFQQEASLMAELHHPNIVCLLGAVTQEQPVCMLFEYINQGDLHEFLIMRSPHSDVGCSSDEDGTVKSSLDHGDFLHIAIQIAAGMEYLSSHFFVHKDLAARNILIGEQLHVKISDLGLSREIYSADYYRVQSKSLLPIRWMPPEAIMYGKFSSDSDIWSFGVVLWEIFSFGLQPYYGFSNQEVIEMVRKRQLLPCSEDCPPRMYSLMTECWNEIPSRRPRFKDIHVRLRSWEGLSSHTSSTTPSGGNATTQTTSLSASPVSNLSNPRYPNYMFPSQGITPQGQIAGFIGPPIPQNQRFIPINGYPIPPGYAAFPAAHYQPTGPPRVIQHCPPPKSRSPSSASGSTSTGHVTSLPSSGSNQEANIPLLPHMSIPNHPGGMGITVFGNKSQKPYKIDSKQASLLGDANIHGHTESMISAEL

Binder	MAX(MFI)
PR000374 (antibody, human IgG1, kappa, V domains shown, positive control; also called Bench marker 1) VH: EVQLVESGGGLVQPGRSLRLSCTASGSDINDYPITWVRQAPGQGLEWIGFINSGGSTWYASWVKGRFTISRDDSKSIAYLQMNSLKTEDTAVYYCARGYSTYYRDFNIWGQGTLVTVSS VL: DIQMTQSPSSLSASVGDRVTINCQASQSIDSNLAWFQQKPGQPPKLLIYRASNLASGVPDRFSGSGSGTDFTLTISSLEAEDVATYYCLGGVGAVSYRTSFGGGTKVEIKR	1.49e+07 MFI
PR303191 (antibody, human IgG1, V domains shown, HCAb (heavy chain-only, human IgG1 Fc), no light chain) VH: EVQLLESGGGLVQPGGSLRLSCAASGFIFGSYAMSWVRQAPGKGLEWVSGISGTGGNTYYADSVKGRFTISRDNSKNTLYLQMNSLRAEDTAVYFCERGITIHGVVIIPPDYRGQGTLVTVSS	1.4e+07 MFI
PR303147 (antibody, human IgG1, V domains shown, HCAb (heavy chain-only, human IgG1 Fc), no light chain) VH: EVQLVESGGGLVQPGGSLRLSCAASGFTFSNFWMYWVRQAPGKGLVWVSRINSDGSSTNYADSVKGRFTISRDNAKNTLYLQMNSLRVEDTAVYSCAREGSGWYEDFDYWGQGTLVTVSS	1.46e+07 MFI
